Biological target: HLA-A*02:01 molecule (Homo sapiens, UniProt P04439, D140Y/D185E/D98H/E176V/E277Q/G131W/G231S/I119V/I121R/I166T/I218V/L300P/L318F/N151K/N90K/P208A/P217A/Q86G/Q94H/R138H/R169H/T345S)
Construct: using a cell line T2 (purchased from ATCC) expressing an HLA-A*02:01 molecule; host or cells: T2 cell line
Assay: Binding of peptide to HLA-A*02:01 molecule using cell line T2
No end group written: not given here.
RESULT TYPE: log10 of Kd (log10 of the value in µM)
Would you kindly interpret these values as log10 of Kd expressed in µM?

Query: # lookup: log10 of Kd of IQYSSFHNL [compound 21]
Result: 0.71

Query: # lookup: log10 of Kd of ALPAPHLTL [compound 18]
Result: 0.01

Query: # lookup: log10 of Kd of ALQFLIPRL [compound 22]
Result: 0.10

Query: # lookup: log10 of Kd of IALETPVWI [compound 20]
Result: 0.89

Query: # lookup: log10 of Kd of AQAPPTAQL [compound 5]
Result: -0.02

Query: # lookup: log10 of Kd of TLTAWQHGL [compound 33]
Result: 0.05

Query: # lookup: log10 of Kd of ALQPPCPNL [compound 31]
Result: 0.87

Query: # lookup: log10 of Kd of YQLSPPITW [compound 32]
Result: 2.55
